test system: Alternaria tenuis; assay: Fungicidal effect on infected agar nutrient media, colony diameter; assay type: cell-based; settings: 10 ppm; 5th day after treatment; untreated control 36.8

[
  {
    "Molecule": "CC(CI)OP1(=S)OC(C)C(C)S1 (stereo not drawn)",
    "Target entity": "Alternaria tenuis",
    "Diameter of colony (mm)": 20.7
  },
  {
    "Molecule": "CC(Cl)C(C)OP1(=S)OCCS1 (stereo not drawn)",
    "Target entity": "Alternaria tenuis",
    "Diameter of colony (mm)": 22.4
  },
  {
    "Molecule": "CCCC(C)OP1(=S)OCCS1 (stereo not drawn)",
    "Target entity": "Alternaria tenuis",
    "Diameter of colony (mm)": 25.7
  },
  {
    "Molecule": "CC(I)COP1(=S)OC(C)CS1 (stereo not drawn)",
    "Target entity": "Alternaria tenuis",
    "Diameter of colony (mm)": 25.5
  },
  {
    "Molecule": "CCCOP1(=S)OCCS1 (stereo not drawn)",
    "Target entity": "Alternaria tenuis",
    "Diameter of colony (mm)": 24.3
  },
  {
    "Molecule": "CC(Br)C(C)OP1(=S)OCCS1 (stereo not drawn)",
    "Target entity": "Alternaria tenuis",
    "Diameter of colony (mm)": 23.6
  }
]

----------
test system: Alternaria tenuis; test: Fungicidal effect on infected agar nutrient media, colony diameter; type: cell-based; settings: 1000 ppm; 5th day after treatment; untreated control 36.8

[
  {
    "Compound": "CC(CI)OP1(=S)OCCS1 (stereo not drawn)",
    "Diameter of colony (mm)": "0 mm"
  },
  {
    "Compound": "CCCCOP1(=S)OCCS1 (stereo not drawn) [Compound 59]",
    "Diameter of colony (mm)": "0 mm"
  },
  {
    "Compound": "CC(Br)C(C)OP1(=S)OCCS1 (stereo not drawn)",
    "Diameter of colony (mm)": "0 mm"
  }
]

----------
tested on: Sclerotinia sclerotinia; test: Fungicidal effect on infected agar nutrient media, colony diameter; format: cell-based; details: 10 ppm; 3rd day after treatment; untreated control 41.7
We begin with a simple list: items and their reported Diameter of colony (mm).
Property label: Diameter of colony (mm)

[
  {
    "Compound": "CCCOP1(=S)OCC(CC)S1 (stereo not drawn) [Compound 51]",
    "Target entity": "Sclerotinia sclerotinia",
    "Result": "30.0 mm"
  },
  {
    "Compound": "CC1COP(=S)(OC(C)C(C)I)S1 (stereo not drawn) [Compound 33]",
    "Target entity": "Sclerotinia sclerotinia",
    "Result": "26.4 mm"
  },
  {
    "Compound": "S=P1(OCCBr)OCCS1 (stereo not drawn) [Compound 2]",
    "Target entity": "Sclerotinia sclerotinia",
    "Result": "29.3 mm"
  },
  {
    "Compound": "CC(CBr)OP1(=S)OC(C)CS1 (stereo not drawn) [Compound 20]",
    "Target entity": "Sclerotinia sclerotinia",
    "Result": "28.2 mm"
  },
  {
    "Compound": "CC(Br)COP1(=S)OC(C)C(C)S1 (stereo not drawn) [Compound 41]",
    "Target entity": "Sclerotinia sclerotinia",
    "Result": "30.0 mm"
  },
  {
    "Compound": "CCCCOP1(=S)OCC(C)S1 (stereo not drawn) [Compound 61]",
    "Target entity": "Sclerotinia sclerotinia",
    "Result": "28.9 mm"
  },
  {
    "Compound": "CC(I)COP1(=S)OC(C)CS1 (stereo not drawn) [Compound 24]",
    "Target entity": "Sclerotinia sclerotinia",
    "Result": "29.0 mm"
  },
  {
    "Compound": "CC(CI)OP1(=S)OCCS1 (stereo not drawn) [Compound 12]",
    "Target entity": "Sclerotinia sclerotinia",
    "Result": "27.4 mm"
  },
  {
    "Compound": "CC1COP(=S)(OCCI)S1 (stereo not drawn) [Compound 9]",
    "Target entity": "Sclerotinia sclerotinia",
    "Result": "27.6 mm"
  },
  {
    "Compound": "CC1COP(=S)(OCCCl)S1 (stereo not drawn) [Compound 7]",
    "Target entity": "Sclerotinia sclerotinia",
    "Result": "31.2 mm"
  },
  {
    "Compound": "CCC(C)OP1(=S)OC(C)C(C)S1 (stereo not drawn) [Compound 53]",
    "Target entity": "Sclerotinia sclerotinia",
    "Result": "30.0 mm"
  },
  {
    "Compound": "CC(Cl)COP1(=S)OC(C)C(C)S1 (stereo not drawn) [Compound 40]",
    "Target entity": "Sclerotinia sclerotinia",
    "Result": "28.0 mm"
  },
  {
    "Compound": "CCCCC(C)OP1(=S)OC(C)C(C)S1 (stereo not drawn) [Compound 65]",
    "Target entity": "Sclerotinia sclerotinia",
    "Result": "30.1 mm"
  },
  {
    "Compound": "CC(CCl)OP1(=S)OC(C)CS1 (stereo not drawn) [Compound 19]",
    "Target entity": "Sclerotinia sclerotinia",
    "Result": "27.4 mm"
  },
  {
    "Compound": "CC1CSP(=S)(OCCBr)O1 (stereo not drawn) [Compound 5]",
    "Target entity": "Sclerotinia sclerotinia",
    "Result": "29.2 mm"
  },
  {
    "Compound": "CC(CCl)OP1(=S)OCCS1 (stereo not drawn) [Compound 10]",
    "Target entity": "Sclerotinia sclerotinia",
    "Result": "31.3 mm"
  },
  {
    "Compound": "CCCOP1(=S)OCCS1 (stereo not drawn) [Compound 46]",
    "Target entity": "Sclerotinia sclerotinia",
    "Result": "28.7 mm"
  },
  {
    "Compound": "CCOP1(=S)OCCS1 (stereo not drawn) [Compound 55]",
    "Target entity": "Sclerotinia sclerotinia",
    "Result": "28.2 mm"
  },
  {
    "Compound": "CC(CCl)OP1(=S)OC(C)C(C)S1 (stereo not drawn) [Compound 34]",
    "Target entity": "Sclerotinia sclerotinia",
    "Result": "23.9 mm"
  },
  {
    "Compound": "CC(C)COP1(=S)OC(C)CS1 (stereo not drawn) [Compound 52]",
    "Target entity": "Sclerotinia sclerotinia",
    "Result": "28.6 mm"
  },
  {
    "Compound": "CC(Cl)COP1(=S)OC(C)CS1 (stereo not drawn) [Compound 22]",
    "Target entity": "Sclerotinia sclerotinia",
    "Result": "30.1 mm"
  },
  {
    "Compound": "CCCCOP1(=S)OCCS1 (stereo not drawn) [Compound 59]",
    "Target entity": "Sclerotinia sclerotinia",
    "Result": "28.5 mm"
  },
  {
    "Compound": "CCCC(C)OP1(=S)OC(C)C(C)S1 (stereo not drawn) [Compound 66]",
    "Target entity": "Sclerotinia sclerotinia",
    "Result": "28.8 mm"
  },
  {
    "Compound": "CC(CBr)OP1(=S)OCCS1 (stereo not drawn) [Compound 11]",
    "Target entity": "Sclerotinia sclerotinia",
    "Result": "30.6 mm"
  },
  {
    "Compound": "CCCCOP1(=S)OC(C)C(C)S1 (stereo not drawn) [Compound 63]",
    "Target entity": "Sclerotinia sclerotinia",
    "Result": "29.9 mm"
  },
  {
    "Compound": "CC(Br)COP1(=S)OC(C)CS1 (stereo not drawn) [Compound 23]",
    "Target entity": "Sclerotinia sclerotinia",
    "Result": "29.7 mm"
  },
  {
    "Compound": "CC1CSP(=S)(OCCCl)O1 (stereo not drawn) [Compound 4]",
    "Target entity": "Sclerotinia sclerotinia",
    "Result": "27.6 mm"
  },
  {
    "Compound": "CC(Cl)COP1(=S)OCCS1 (stereo not drawn) [Compound 13]",
    "Target entity": "Sclerotinia sclerotinia",
    "Result": "32.1 mm"
  },
  {
    "Compound": "CC(Br)COP1(=S)OCCS1 (stereo not drawn) [Compound 14]",
    "Target entity": "Sclerotinia sclerotinia",
    "Result": "28.1 mm"
  },
  {
    "Compound": "CC(CI)OP1(=S)OC(C)C(C)S1 (stereo not drawn) [Compound 36]",
    "Target entity": "Sclerotinia sclerotinia",
    "Result": "26.9 mm"
  },
  {
    "Compound": "CC1COP(=S)(OCCBr)S1 (stereo not drawn) [Compound 8]",
    "Target entity": "Sclerotinia sclerotinia",
    "Result": "29.9 mm"
  },
  {
    "Compound": "S=P1(OCCS)OCCS1 (stereo not drawn) [Compound 56]",
    "Target entity": "Sclerotinia sclerotinia",
    "Result": "31.5 mm"
  },
  {
    "Compound": "CC1CSP(=S)(OCCI)O1 (stereo not drawn) [Compound 6]",
    "Target entity": "Sclerotinia sclerotinia",
    "Result": "30.0 mm"
  },
  {
    "Compound": "CCCCOP1(=S)OC(C)CS1 (stereo not drawn) [Compound 60]",
    "Target entity": "Sclerotinia sclerotinia",
    "Result": "30.0 mm"
  },
  {
    "Compound": "CC(C)OP1(=S)OCCS1 (stereo not drawn) [Compound 57]",
    "Target entity": "Sclerotinia sclerotinia",
    "Result": "25.9 mm"
  },
  {
    "Compound": "CC(I)C(C)OP1(=S)OC(C)C(C)S1 (stereo not drawn) [Compound 45]",
    "Target entity": "Sclerotinia sclerotinia",
    "Result": "30.0 mm"
  },
  {
    "Compound": "CC1OP(=S)(OCCI)SC1C (stereo not drawn) [Compound 18]",
    "Target entity": "Sclerotinia sclerotinia",
    "Result": "28.0 mm"
  },
  {
    "Compound": "CCCOP1(=S)OC(C)CS1 (stereo not drawn) [Compound 47]",
    "Target entity": "Sclerotinia sclerotinia",
    "Result": "30.2 mm"
  },
  {
    "Compound": "CC1OP(=S)(OCCBr)SC1C (stereo not drawn) [Compound 17]",
    "Target entity": "Sclerotinia sclerotinia",
    "Result": "30.2 mm"
  },
  {
    "Compound": "CCC(C)OP1(=S)OCCS1 (stereo not drawn) [Compound 49]",
    "Target entity": "Sclerotinia sclerotinia",
    "Result": "30.4 mm"
  },
  {
    "Compound": "CC1CSP(=S)(OC(C)C(C)Br)O1 (stereo not drawn) [Compound 38]",
    "Target entity": "Sclerotinia sclerotinia",
    "Result": "31.3 mm"
  },
  {
    "Compound": "CC1COP(=S)(OC(C)C(C)Br)S1 (stereo not drawn) [Compound 32]",
    "Target entity": "Sclerotinia sclerotinia",
    "Result": "30.0 mm"
  },
  {
    "Compound": "CC(C)CCOP1(=S)OCCS1 (stereo not drawn) [Compound 67]",
    "Target entity": "Sclerotinia sclerotinia",
    "Result": "29.6 mm"
  },
  {
    "Compound": "CC1CSP(=S)(OC(C)C(C)Cl)O1 (stereo not drawn) [Compound 37]",
    "Target entity": "Sclerotinia sclerotinia",
    "Result": "27.1 mm"
  },
  {
    "Compound": "CC(Cl)C(C)OP1(=S)OC(C)C(C)S1 (stereo not drawn) [Compound 43]",
    "Target entity": "Sclerotinia sclerotinia",
    "Result": "28.2 mm"
  },
  {
    "Compound": "CC(CI)OP1(=S)OC(C)CS1 (stereo not drawn) [Compound 21]",
    "Target entity": "Sclerotinia sclerotinia",
    "Result": "25.8 mm"
  },
  {
    "Compound": "CCCC(C)OP1(=S)OCCS1 (stereo not drawn) [Compound 62]",
    "Target entity": "Sclerotinia sclerotinia",
    "Result": "30.2 mm"
  },
  {
    "Compound": "CCCCOP1(=S)OCCS1 (stereo not drawn) [Compound 58]",
    "Target entity": "Sclerotinia sclerotinia",
    "Result": "29.1 mm"
  },
  {
    "Compound": "CCCCOP1(=S)OC(C)CS1 (stereo not drawn) [Compound 64]",
    "Target entity": "Sclerotinia sclerotinia",
    "Result": "28.7 mm"
  },
  {
    "Compound": "CC(I)COP1(=S)OCCS1 (stereo not drawn) [Compound 15]",
    "Target entity": "Sclerotinia sclerotinia",
    "Result": "30.3 mm"
  },
  {
    "Compound": "CC(C)C(C)OP1(=S)OC(C)C(C)S1 (stereo not drawn) [Compound 54]",
    "Target entity": "Sclerotinia sclerotinia",
    "Result": "29.0 mm"
  }
]
